test system: HIV-1 RT; experiment: Amp-RT assay, AZT-TP and other NRTI-TPs, reference viruses; type: biochemical; settings: WT HIV-1SUM9
Measured IC50 accompanies every entry in the list below.
reported.property: IC50

1. Cc1cn([C@H]2C=C[C@@H](COP(=O)(O)OP(=O)(O)OP(=O)(O)O)O2)c(=O)[nH]c1=O    55 nM
2. Nc1ccn([C@H]2CC[C@@H](COP(=O)(O)OP(=O)(O)OP(=O)(O)O)O2)c(=O)n1 [ddC-TP, ddC-triphosphate]    500 nM
3. Nc1ccn([C@@H]2CS[C@H](COP(=O)(O)OP(=O)(O)OP(=O)(O)O)O2)c(=O)n1 [3TC-TP, 3TC-5′-triphosphate]    400 nM
4. Cc1cn([C@H]2C[C@H](N=[N+]=[N-])[C@@H](COP(=O)(O)OP(=O)(O)OP(=O)(O)O)O2)c(=O)[nH]c1=O [AZT-TP, AZT-triphosphate]    500 nM
5. Nc1ncnc2c1ncn2[C@H]1CC[C@@H](COP(=O)(O)OP(=O)(O)OP(=O)(O)O)O1    270 nM
